molecular target: TYK2 (Homo sapiens); experiment: TYK2 kinase inhibition (Table A1); assay type: biochemical
Sequence (P29597 whole entry): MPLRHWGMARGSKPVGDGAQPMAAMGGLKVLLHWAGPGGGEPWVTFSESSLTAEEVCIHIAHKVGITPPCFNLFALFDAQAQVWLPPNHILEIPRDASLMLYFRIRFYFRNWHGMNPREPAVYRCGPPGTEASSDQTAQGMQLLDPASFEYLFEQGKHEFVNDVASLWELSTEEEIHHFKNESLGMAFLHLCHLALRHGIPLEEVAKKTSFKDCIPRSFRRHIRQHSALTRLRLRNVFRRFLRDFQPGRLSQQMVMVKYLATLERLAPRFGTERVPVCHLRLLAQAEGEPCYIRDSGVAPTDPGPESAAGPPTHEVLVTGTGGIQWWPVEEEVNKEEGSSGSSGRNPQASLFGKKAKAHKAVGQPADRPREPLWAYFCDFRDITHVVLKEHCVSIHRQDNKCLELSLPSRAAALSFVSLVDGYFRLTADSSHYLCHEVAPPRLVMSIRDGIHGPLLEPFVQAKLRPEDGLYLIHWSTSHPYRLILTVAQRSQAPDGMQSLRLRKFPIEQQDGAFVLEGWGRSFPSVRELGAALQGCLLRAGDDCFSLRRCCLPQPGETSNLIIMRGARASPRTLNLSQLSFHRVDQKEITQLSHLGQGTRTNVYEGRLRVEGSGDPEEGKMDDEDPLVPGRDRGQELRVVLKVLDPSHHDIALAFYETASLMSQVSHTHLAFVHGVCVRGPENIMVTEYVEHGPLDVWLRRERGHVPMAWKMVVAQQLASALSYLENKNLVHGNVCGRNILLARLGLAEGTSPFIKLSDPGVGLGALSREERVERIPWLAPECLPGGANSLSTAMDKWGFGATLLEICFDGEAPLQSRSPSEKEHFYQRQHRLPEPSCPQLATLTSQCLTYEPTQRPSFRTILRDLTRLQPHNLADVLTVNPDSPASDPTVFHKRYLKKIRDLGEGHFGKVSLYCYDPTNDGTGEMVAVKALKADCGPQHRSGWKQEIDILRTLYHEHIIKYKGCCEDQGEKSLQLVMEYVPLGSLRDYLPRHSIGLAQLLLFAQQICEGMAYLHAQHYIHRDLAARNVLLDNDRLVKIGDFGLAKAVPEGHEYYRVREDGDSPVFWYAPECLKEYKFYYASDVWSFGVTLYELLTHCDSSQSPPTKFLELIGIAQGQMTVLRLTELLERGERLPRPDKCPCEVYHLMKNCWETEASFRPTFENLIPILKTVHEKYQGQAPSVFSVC
pIC50: −log10 of the molar value. Counter-ions that a name gives are not always drawn.
Outcome measure: pIC50

Solved entries (count: 2):
Molecule	pIC50
NS(=O)(=O)N1CCC(C(=O)Nc2ccc3cc2CCc2cccc(c2)Nc2ncc(Cl)c(n2)N3)CC1 [Example A72, trifluoroacetate]	7.80
O=C(CC1CCN(c2ncco2)CC1)Nc1ccc2cc1CCc1cncc(c1)Nc1ncc(Cl)c(n1)N2 [Example A246, tris(trifluoroacetate)]	< 6.70

Find the recorded pIC50 belonging to O=C(CC1CCN(C(=O)c2ccncc2)CC1)Nc1ccc2cc1CCc1cccc(c1)Nc1ncc(Cl)c(n1)N2 [Example A185, bis(trifluoroacetate)] and report it.
< 6.70

----------
biological target: human JAK2 (a.a. 828-1132) (Homo sapiens); construct: JAK2 (a.a. 828-1132); His tag (N); made in house; host or cells: insect cells (baculovirus); test: In vitro JAK kinase assay (HTRF, phosphorylation of a biotinylated peptide), JAK2; assay type: biochemical; settings: Table D1
Sequence (O60674 828-1132): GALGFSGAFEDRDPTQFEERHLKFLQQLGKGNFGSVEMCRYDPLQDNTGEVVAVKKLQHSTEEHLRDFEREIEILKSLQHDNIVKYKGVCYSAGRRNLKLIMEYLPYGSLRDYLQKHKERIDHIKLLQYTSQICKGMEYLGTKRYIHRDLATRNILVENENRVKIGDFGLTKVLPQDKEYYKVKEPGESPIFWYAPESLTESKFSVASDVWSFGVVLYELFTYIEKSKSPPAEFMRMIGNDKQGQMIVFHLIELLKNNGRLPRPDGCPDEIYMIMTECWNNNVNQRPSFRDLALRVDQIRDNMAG
Counter-ions that a name gives are not always drawn.
Listing of recorded IC50 by entry.
Give the quantity in nM, number only.

Molecule	Endpoint result
Cc1noc(C)c1NC(=O)N1CCC(CCOc2ccc3cc2CCc2cncc(c2)Nc2ncc(Cl)c(n2)N3)CC1 [Example D171, bis(trifluoroacetate)]	244
[O-][S+]1Cc2cccc(c2)Nc2nc(ncc2Cl)Nc2cccc1c2 (stereo not shown) [Example D3, trifluoroacetate]	6.3
CS(=O)(=O)N1CC(CC(=O)Nc2ccc3cc2CCc2cncc(c2)Nc2ncc(Cl)c(n2)N3)C1 [Example D146, bis(trifluoroacetate)]	149

Field: next molecule
Find the recorded IC50 belonging to Cn1c(NC(=O)c2cc3cc(c2)OCCSc2cccc(c2)Nc2nc(ncc2Cl)N3)nc2ccccc21 [Example D55, bis(trifluoroacetate)] and report it.
40

----------
target: human JAK1 (a.a. 837-1142) (Homo sapiens, UniProt P23458); construct: human JAK1 (a.a. 837-1142); His tag (N); made in house; host or cells: insect cells (baculovirus); assay: In vitro JAK kinase assay (HTRF, phosphorylation of a biotinylated peptide), JAK1; format: biochemical; conditions: Table D1; read-out: JAK1 IC50
Sequence (P23458 849-1154): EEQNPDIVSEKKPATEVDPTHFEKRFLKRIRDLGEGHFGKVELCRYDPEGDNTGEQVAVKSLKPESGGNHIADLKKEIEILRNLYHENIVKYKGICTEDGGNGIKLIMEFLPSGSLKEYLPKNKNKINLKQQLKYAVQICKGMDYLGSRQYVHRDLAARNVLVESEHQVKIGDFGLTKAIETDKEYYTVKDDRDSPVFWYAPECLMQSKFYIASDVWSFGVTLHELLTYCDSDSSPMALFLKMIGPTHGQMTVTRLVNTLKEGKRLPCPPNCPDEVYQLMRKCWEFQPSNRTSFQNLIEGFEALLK
Structures can show the parent of a compound that is named as a salt.
Listing of recorded IC50 by entry.
Give the quantity in nM, number only.

Find the recorded IC50 belonging to O=C(c1cccnc1)N1CCC(CCOc2ccc3cc2CCc2cncc(c2)Nc2ncc(Cl)c(n2)N3)CC1 [Example D180, tris(trifluoroacetate)] and report it.
255

Try O=C(COc1ccc2cc1CCc1cncc(c1)Nc1ncc(Cl)c(n1)N2)N1CCN(c2ccc(F)cc2)CC1 [Example D242, tris(trifluoroacetate)] next.
46

Try NC(=O)N1CCN(c2cc(-c3cc4cc(c3)Nc3ncc(Cl)c(n3)Nc3cccc(c3)OCC4)ccn2)CC1 [Example D39, bis(trifluoroacetate)] next.
0.5

Try NC(=O)N1CCN(c2ccc(-c3cc4cc(c3)Nc3ncc(Cl)c(n3)Nc3cccc(c3)OCC4)cn2)CC1 [Example D40, bis(trifluoroacetate)] next.
0.9

Try CC(C)(C)NC(=O)N1CCN(c2ccc3cc2CCc2cccc(c2)Nc2ncc(Cl)c(n2)N3)CC1 [Example D84, bis(trifluoroacetate)] next.
21

Try N#Cc1ccccc1NC(=O)N1CCC(CCOc2ccc3cc2CCc2cncc(c2)Nc2ncc(Cl)c(n2)N3)CC1 [Example D173, bis(trifluoroacetate)] next.
100

Try O=C(Nc1ccc2[nH]ccc2c1)c1cc2cc(c1)OCCSc1cccc(c1)Nc1nc(ncc1Cl)N2 [Example D56, trifluoroacetate] next.
10

Try O=C(CC1CN(C(=O)c2cn[nH]c2)C1)Nc1ccc2cc1CCc1cncc(c1)Nc1ncc(Cl)c(n1)N2 [Example D149, bis(trifluoroacetate)] next.
18

Try Cc1cc(C(=O)N2CCC(CCNc3ccc4cc3CCc3cncc(c3)Nc3ncc(Cl)c(n3)N4)CC2)no1 [Example D218, tris(trifluoroacetate)] next.
13

----------
Listing of recorded pIC50 by entry.
target: TYK2 (Homo sapiens); assay: TYK2 kinase inhibition (Table A1); assay type: biochemical; conditions: Table B1
Where a name gives a salt, the structure may show the parent alone.
Here pIC50 is given on a logarithmic scale as minus log10 of the concentration in mol/L.

Solved entries (count: 3):
Compound	pIC50
O=C(Nc1cc2cc(c1)Nc1nc(ncc1Cl)Nc1cccc(c1)CC2)C1CCC1 [Example B211, trifluoroacetate]	6.72
CCC(=O)Nc1ccc2cc1CCc1cccc(c1)Nc1ncc(Cl)c(n1)N2 [Example B54, trifluoroacetate]	7.85
Cc1noc(C)c1S(=O)(=O)Nc1ccc2cc1CCc1cccc(c1)Nc1ncc(Cl)c(n1)N2 [Example B152, trifluoroacetate]	9.30

Find the recorded pIC50 belonging to Cc1ccccc1S(=O)(=O)Nc1ccc2cc1CCc1cccc(c1)Nc1ncc(Cl)c(n1)N2 [Example B149, trifluoroacetate] and report it.
9.29

----------
molecular target: human JAK3 (a.a. 781-1124) (Homo sapiens, UniProt P52333); construct: JAK3 (a.a. 781-1124); His tag (N); made in house; host or cells: insect cells (baculovirus); experiment: In vitro JAK kinase assay (HTRF, phosphorylation of a biotinylated peptide), JAK3; type: biochemical; details: Table D1
Sequence (P52333 781-1124): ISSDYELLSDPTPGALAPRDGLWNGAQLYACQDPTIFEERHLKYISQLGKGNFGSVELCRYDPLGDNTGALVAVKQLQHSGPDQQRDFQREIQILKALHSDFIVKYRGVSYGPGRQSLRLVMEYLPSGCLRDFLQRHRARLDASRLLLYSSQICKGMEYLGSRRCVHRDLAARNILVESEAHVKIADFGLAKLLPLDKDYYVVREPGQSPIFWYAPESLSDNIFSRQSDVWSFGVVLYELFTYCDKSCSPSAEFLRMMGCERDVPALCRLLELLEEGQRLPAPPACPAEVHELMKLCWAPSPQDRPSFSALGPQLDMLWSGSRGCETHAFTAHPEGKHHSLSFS
Counter-ions that a name gives are not always drawn.
Listing of recorded IC50 by entry.

Compound	IC50
O=C(Nc1nccs1)c1cc2cc(c1)OCCSc1cccc(c1)Nc1nc(ncc1Cl)N2 [Example D54, trifluoroacetate]	0.132 µM

Find the recorded IC50 belonging to Clc1cnc2nc1Nc1cccc(c1)SCCc1cccc(c1)N2 [Example D18, trifluoroacetate] and report it.
0.024 µM

Try O=C(Nc1cccnc1)N1CCC(CCOc2ccc3cc2CCc2cncc(c2)Nc2ncc(Cl)c(n2)N3)CC1 [Example D182, tris(trifluoroacetate)] next.
> 0.4 µM

Try O=C(c1cccnc1)N1CCC(CCOc2ccc3cc2CCc2cncc(c2)Nc2ncc(Cl)c(n2)N3)CC1 [Example D180, tris(trifluoroacetate)] next.
> 0.4 µM

Try Cc1ccnc(N2CCN(C(=O)COc3ccc4cc3CCc3cncc(c3)Nc3ncc(Cl)c(n3)N4)CC2)c1 [Example D237, tris(trifluoroacetate)] next.
> 0.4 µM

Try CNC(=O)N1CCN(C(=O)COc2ccc3cc2CCc2cncc(c2)Nc2ncc(Cl)c(n2)N3)CC1 [Example D265, bis(trifluoroacetate)] next.
> 0.4 µM

----------
molecular target: human JAK1 (a.a. 837-1142) (Homo sapiens); construct: human JAK1 (a.a. 837-1142); His tag (N); made in house; host or cells: insect cells (baculovirus); assay: In vitro JAK kinase assay (HTRF, phosphorylation of a biotinylated peptide), JAK1; assay type: biochemical; conditions: method AA1 (90 μM ATP) or AA2 (1000 μM ATP), not stated per value; read-out: JAK1 IC50
Counter-ions that a name gives are not always drawn.
Listing of recorded log10(IC50) by entry.
For clarity, the numbers are log10 values of IC50 expressed in nM.

Solved entries (count: 4):
Compound	Study target	log10(IC50)
Cc1nc(C)c(S(=O)(=O)N2CCC(CC(=O)Nc3ccc4cc3CCc3cncc(c3)Nc3ncc(Cl)c(n3)N4)CC2)s1 [Example A232, bis(trifluoroacetate)]	human JAK1 (a.a. 837-1142) (Homo sapiens)	1.08
Cc1cccc(N2CCC(CC(=O)Nc3ccc4cc3CCc3cncc(c3)Nc3ncc(Cl)c(n3)N4)CC2)c1C#N [Example A236, tris(trifluoroacetate)]	human JAK1 (a.a. 837-1142) (Homo sapiens)	0.23
CC(C)S(=O)(=O)N1CCC(CC(=O)Nc2ccc3cc2CCc2cncc(c2)Nc2ncc(Cl)c(n2)N3)CC1 [Example A97, bis(trifluoroacetate)]	human JAK1 (a.a. 837-1142) (Homo sapiens)	0.59
CC(C)(C)C(=O)N1CCC(CC(=O)Nc2ccc3cc2CCc2cccc(c2)Nc2ncc(Cl)c(n2)N3)CC1 [Example A88, trifluoroacetate]	human JAK1 (a.a. 837-1142) (Homo sapiens)	1.15

Find the recorded log10(IC50) belonging to CC(=O)N1CCN(C(=O)COc2ccc3cc2CCc2cccc(c2)Nc2ncc(Cl)c(n2)N3)CC1 [Example A20, trifluoroacetate] and report it.
1.08

Try O=C(Nc1ccc2cc1CCc1cccc(c1)Nc1ncc(Cl)c(n1)N2)C1CCCNC1 (stereo not drawn) [Example A44, bis(trifluoroacetate)] next.
1.41

Try NCC(=O)Nc1ccc2cc1CCc1cccc(c1)Nc1ncc(Cl)c(n1)N2 [Example A107, bis(trifluoroacetate)] next.
0.60

Try CC(C)c1oncc1C(=O)N1CCC(CC(=O)Nc2ccc3cc2CCc2cncc(c2)Nc2ncc(Cl)c(n2)N3)CC1 [Example A218, bis(trifluoroacetate)] next.
1.87

Try Cc1ccccc1NC(=O)N1CCC(CC(=O)Nc2ccc3cc2CCc2cncc(c2)Nc2ncc(Cl)c(n2)N3)CC1 [Example A149, bis(trifluoroacetate)] next.
-0.30

Try O=C(Nc1ccc2cc1CCc1cccc(c1)Nc1ncc(Cl)c(n1)N2)[C@@H]1CCNC1 [Example A45, bis(trifluoroacetate)] next.
0.98

Try Cc1nc(S(=O)(=O)N2CCC(CC(=O)Nc3ccc4cc3CCc3cncc(c3)Nc3ncc(Cl)c(n3)N4)CC2)cn1C [Example A230, bis(trifluoroacetate)] next.
1.18

Try C[C@H](O)C(=O)Nc1ccc2cc1CCc1cccc(c1)Nc1ncc(Cl)c(n1)N2 [Example A106, trifluoroacetate] next.
1.26

Try NS(=O)(=O)N1CCC(C(=O)Nc2ccc3cc2CCc2cccc(c2)Nc2ncc(Cl)c(n2)N3)CC1 [Example A72, trifluoroacetate] next.
1.26

Try O=C(CC1CCN(c2ccnc(F)c2)CC1)Nc1ccc2cc1CCc1cncc(c1)Nc1ncc(Cl)c(n1)N2 [Example A244, tris(trifluoroacetate)] next.
1.48

Try Cc1ccnc(N2CCC(CC(=O)Nc3ccc4cc3CCc3cncc(c3)Nc3ncc(Cl)c(n3)N4)CC2)c1 [Example A176, tris(trifluoroacetate)] next.
1.71

Try N#Cc1ccccc1N1CCC(CC(=O)Nc2ccc3cc2CCc2cncc(c2)Nc2ncc(Cl)c(n2)N3)CC1 [Example A220, tris(trifluoroacetate)] next.
1.11

Try Clc1cnc2nc1Nc1cccc(c1)CCc1cccc(c1)N2 [Example A2, trifluoroacetate] next.
1.08

Try O=C(CCNC(=O)Nc1ccccc1)Nc1ccc2cc1CCc1cccc(c1)Nc1ncc(Cl)c(n1)N2 [Example A67, trifluoroacetate] next.
0.90
